Hey, just so you know, these numbers are from ChEMBL document CHEMBL3885861.

species: Rattus norvegicus; experiment: Open TG-GATES - Regimen: Daily Repeat; format: toxicity, organism-based, Sprague-Dawley; design: regimen Daily Repeat, gender Male, age 6 weeks; details: in vivo, po, 0 mg/kg, […], tissue Plasma, route gavage, dose level Control, time 14 day
ASSAY_ENDPOINT: IP (mg/dL)
I only need the number, in mg/dL, no unit after it.

Consider the worked cases shown below.
[
  {
    "COMPOUND": "CC(CCc1ccccc1)NCC(O)c1ccc(O)c(C(N)=O)c1 (stereo not drawn) [LABETALOL]",
    "UNITS_SYMBOL": "mg/dL",
    "OBSERVED": 6.9
  },
  {
    "COMPOUND": "O=C(O)COc1nn(Cc2ccccc2)c2ccccc12 [BENDAZAC]",
    "UNITS_SYMBOL": "mg/dL",
    "OBSERVED": 7.1
  },
  {
    "COMPOUND": "CCN(CC)N=O [N-NITROSODIETHYLAMINE]",
    "UNITS_SYMBOL": "mg/dL",
    "OBSERVED": 8
  }
]

**Q:** // Input: CC(C)Cc1ccc(C(C)C(=O)O)cc1 (stereo not drawn) [IBUPROFEN] . Output its IP only.
**A:** 7.7

**Q:** // Input: CC(=O)N1CCN(c2ccc(OCC3COC(Cn4ccnc4)(c4ccc(Cl)cc4Cl)O3)cc2)CC1 (stereo not drawn) [KETOCONAZOLE] . Output its IP only.
**A:** 6.4

**Q:** // Input: CC(=O)Nc1ccc2c(c1)Cc1ccccc1-2 [2-ACETYLAMINOFLUORENE] . Output its IP only.
**A:** 7.3

**Q:** // Input: CC(N)=O [ACETAMIDE] . Output its IP only.
**A:** 6.6

**Q:** // Input: CC[C@@H](CO)NCCN[C@@H](CC)CO [ETHAMBUTOL] . Output its IP only.
**A:** 7.2
